test: In vitro hemolysis assay; assay type: cell-based, bovine; conditions: bovine, blood, 3 mmol/L, 37° C., control 1.5%
REPORTED PROPERTY: hemolysis at 4 h, 3000 µM (%)

> print(dat)
                                   compound  reported
1  CCCCCCCCCCCC(=O)O [Dodecanoate, dodecanoic acid]      24.9
2  CCCCCCCCCC(=O)O [Decanoate, decanoic acid]      21.9
